The measurements presented in this section are drawn from ChEMBL document CHEMBL1135689.

- Target or test system: Fibroblast growth factor receptor 1 (Homo sapiens, UniProt P11362)
Measurement kind: IC50 (µM)

O=C(Nc1cccc(-c2cncc3ccccc23)c1)c1ccccc1NCc1ccncc1    5.1

---

- Target or test system: Cyclin-dependent kinase 1 (Homo sapiens)
- Sequence (P06493 whole entry): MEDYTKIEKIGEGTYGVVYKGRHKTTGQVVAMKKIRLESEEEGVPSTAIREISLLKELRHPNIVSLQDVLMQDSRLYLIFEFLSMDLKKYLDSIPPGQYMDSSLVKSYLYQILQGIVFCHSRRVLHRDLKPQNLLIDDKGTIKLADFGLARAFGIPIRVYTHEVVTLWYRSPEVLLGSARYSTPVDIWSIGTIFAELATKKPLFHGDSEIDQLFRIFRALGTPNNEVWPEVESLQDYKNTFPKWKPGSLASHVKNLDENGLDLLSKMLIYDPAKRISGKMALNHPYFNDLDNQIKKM
Measurement kind: IC50

O=C(Nc1cccc(C(F)(F)F)c1)c1ccccc1NCc1ccncc1    > 10 µM
O=C(Nc1cccc(-c2cncc3ccccc23)c1)c1ccccc1NCc1ccncc1    > 10 µM

---

- Target or test system: Insulin-like growth factor 1 receptor (Homo sapiens, UniProt P08069)
- Sequence (P08069 31-736 limits assumed): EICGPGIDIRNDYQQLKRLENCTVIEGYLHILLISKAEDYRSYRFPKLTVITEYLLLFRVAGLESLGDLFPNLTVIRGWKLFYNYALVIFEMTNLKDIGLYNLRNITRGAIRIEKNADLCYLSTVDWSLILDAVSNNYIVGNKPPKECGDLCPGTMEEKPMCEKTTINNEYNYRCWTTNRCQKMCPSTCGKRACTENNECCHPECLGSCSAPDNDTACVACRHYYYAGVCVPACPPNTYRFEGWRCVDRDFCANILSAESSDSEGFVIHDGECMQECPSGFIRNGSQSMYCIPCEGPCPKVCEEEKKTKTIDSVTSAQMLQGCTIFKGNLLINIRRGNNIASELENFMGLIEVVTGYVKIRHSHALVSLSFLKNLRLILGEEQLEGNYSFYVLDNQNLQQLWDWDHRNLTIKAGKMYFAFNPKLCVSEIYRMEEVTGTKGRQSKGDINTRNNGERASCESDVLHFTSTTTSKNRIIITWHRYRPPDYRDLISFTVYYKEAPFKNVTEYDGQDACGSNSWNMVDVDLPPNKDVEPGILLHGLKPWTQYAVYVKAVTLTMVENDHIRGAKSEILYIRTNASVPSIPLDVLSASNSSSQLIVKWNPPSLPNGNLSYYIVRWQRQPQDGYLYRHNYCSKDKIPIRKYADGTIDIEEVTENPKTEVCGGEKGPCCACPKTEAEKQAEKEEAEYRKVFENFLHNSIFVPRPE
- Sequence (P08069 741-1367 limits assumed): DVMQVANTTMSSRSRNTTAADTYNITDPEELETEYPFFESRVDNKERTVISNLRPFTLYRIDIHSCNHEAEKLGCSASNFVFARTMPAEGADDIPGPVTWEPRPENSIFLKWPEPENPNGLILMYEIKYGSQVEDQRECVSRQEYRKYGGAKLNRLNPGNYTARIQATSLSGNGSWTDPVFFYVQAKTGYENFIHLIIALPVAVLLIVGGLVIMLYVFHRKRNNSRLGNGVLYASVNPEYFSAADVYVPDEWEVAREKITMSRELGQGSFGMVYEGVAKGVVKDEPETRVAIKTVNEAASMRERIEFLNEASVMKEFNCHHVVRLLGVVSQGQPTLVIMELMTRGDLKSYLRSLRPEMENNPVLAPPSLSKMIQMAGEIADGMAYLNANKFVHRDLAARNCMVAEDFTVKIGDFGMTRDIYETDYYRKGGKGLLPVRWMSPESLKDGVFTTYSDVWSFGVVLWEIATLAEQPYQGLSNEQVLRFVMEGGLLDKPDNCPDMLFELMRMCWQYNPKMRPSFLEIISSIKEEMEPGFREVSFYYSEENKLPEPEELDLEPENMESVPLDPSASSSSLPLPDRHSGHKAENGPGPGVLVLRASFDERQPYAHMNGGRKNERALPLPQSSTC
pIC50: −log10 of the molar value.
Measurement kind: pIC50

O=C(Nc1cccc(-c2cncc3ccccc23)c1)c1ccccc1NCc1ccncc1    5.19

---

- Target or test system: Angiopoietin-1 receptor (Homo sapiens)
pIC50: −log10 of the molar value.
In this section we review reported pIC50 values for a set of compounds.
Measurement kind: pIC50

Cc1cc(C)c(/C=C2\C(=O)Nc3ccccc32)[nH]1    < 5.00
O=C(Nc1cccc(-c2cncc3ccccc23)c1)c1ccccc1NCc1ccncc1    5.17
O=C(Nc1cccc(C(F)(F)F)c1)c1ccccc1NCc1ccncc1    < 5.00

---

- Target or test system: Vascular endothelial growth factor receptor 1 (Homo sapiens)
Measurement kind: IC50 (µM)

O=C(Nc1cccc(-c2cncc3ccccc23)c1)c1ccccc1NCc1ccncc1    0.13

---

# collection of IC50 values tested on Tyrosine-protein kinase ABL1 (Homo sapiens)
# Sequence (P00519 whole entry): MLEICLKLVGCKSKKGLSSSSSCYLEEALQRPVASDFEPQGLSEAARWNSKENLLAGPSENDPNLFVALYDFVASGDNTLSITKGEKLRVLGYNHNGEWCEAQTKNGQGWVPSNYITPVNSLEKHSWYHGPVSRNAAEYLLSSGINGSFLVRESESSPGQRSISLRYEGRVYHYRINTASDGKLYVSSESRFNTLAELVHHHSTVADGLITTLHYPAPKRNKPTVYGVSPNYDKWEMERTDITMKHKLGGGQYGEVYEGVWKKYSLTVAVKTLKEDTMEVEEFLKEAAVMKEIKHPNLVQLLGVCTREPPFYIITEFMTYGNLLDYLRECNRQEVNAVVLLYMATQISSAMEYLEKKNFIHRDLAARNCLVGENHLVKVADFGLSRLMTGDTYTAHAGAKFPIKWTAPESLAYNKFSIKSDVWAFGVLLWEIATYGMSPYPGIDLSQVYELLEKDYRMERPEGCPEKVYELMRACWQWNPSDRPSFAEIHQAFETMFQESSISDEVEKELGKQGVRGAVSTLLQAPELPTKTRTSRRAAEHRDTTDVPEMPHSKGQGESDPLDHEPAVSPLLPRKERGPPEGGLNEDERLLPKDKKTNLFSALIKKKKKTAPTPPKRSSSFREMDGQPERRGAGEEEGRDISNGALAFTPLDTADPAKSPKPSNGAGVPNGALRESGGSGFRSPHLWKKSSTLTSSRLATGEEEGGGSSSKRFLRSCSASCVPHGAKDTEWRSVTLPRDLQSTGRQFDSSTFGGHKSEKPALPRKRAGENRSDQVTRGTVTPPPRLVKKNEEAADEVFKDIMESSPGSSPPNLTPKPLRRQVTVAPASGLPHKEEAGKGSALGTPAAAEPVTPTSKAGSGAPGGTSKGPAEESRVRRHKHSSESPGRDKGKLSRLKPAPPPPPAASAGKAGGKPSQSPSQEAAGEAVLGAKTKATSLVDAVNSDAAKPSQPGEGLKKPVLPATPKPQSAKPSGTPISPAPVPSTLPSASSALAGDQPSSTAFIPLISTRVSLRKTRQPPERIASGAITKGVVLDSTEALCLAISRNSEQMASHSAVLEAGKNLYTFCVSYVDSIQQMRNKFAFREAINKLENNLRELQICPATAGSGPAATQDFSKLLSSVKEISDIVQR
Measurement kind: IC50 (µM)

O=C(Nc1cccc(-c2cncc3ccccc23)c1)c1ccccc1NCc1ccncc1    5.33
O=C(Nc1cccc(C(F)(F)F)c1)c1ccccc1NCc1ccncc1    2.82

---

# collection of IC50 values tested on Proto-oncogene tyrosine-protein kinase Src (Homo sapiens, UniProt P12931)
# Sequence (P12931 2-536 limits assumed): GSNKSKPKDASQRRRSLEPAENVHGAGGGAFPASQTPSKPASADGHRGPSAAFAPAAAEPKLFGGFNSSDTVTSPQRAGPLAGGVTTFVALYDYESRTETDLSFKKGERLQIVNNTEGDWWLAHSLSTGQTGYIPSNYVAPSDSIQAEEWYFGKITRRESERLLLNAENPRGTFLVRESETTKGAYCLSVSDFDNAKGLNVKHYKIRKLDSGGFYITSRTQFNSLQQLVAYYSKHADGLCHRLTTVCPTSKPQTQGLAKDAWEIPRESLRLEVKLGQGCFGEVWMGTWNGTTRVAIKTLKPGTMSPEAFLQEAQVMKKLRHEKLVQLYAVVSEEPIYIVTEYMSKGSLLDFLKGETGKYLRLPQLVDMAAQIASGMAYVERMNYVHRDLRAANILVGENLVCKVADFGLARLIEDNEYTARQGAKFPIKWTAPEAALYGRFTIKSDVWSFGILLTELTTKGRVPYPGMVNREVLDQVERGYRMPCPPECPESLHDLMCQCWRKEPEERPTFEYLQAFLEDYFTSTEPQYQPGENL
Measurement kind: IC50

O=C(Nc1cccc(-c2cncc3ccccc23)c1)c1ccccc1NCc1ccncc1    > 10 µM
O=C(Nc1cccc(C(F)(F)F)c1)c1ccccc1NCc1ccncc1    > 10 µM

---

- Target or test system: Macrophage colony-stimulating factor 1 receptor (Homo sapiens)
- Sequence (P07333 whole entry): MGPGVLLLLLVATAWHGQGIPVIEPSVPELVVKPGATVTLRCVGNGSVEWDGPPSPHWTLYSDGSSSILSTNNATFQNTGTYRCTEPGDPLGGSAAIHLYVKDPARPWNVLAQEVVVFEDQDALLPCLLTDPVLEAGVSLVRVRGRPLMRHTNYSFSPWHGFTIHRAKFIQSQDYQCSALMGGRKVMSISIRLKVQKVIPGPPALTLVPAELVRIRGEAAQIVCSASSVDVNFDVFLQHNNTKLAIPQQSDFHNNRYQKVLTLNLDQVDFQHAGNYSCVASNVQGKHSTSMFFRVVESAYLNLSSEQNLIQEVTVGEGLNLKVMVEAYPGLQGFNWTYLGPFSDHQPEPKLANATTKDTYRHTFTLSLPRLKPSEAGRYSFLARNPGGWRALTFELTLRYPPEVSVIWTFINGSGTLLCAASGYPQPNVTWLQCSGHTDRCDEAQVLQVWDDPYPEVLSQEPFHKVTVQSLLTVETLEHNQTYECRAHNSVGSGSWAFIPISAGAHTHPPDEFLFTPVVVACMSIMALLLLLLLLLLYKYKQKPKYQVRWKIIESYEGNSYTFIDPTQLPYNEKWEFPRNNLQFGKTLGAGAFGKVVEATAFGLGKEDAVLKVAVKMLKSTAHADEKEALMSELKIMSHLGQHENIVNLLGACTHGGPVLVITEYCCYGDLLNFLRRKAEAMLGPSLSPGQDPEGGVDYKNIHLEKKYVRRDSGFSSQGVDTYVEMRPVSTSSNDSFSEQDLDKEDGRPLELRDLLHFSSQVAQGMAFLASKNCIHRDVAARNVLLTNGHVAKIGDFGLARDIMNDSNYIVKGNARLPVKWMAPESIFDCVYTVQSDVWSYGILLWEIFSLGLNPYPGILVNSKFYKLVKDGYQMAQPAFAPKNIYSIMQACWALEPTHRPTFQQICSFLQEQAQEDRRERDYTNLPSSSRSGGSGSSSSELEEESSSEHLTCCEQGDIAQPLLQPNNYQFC
pIC50: −log10 of the molar value.
Measurement kind: pIC50

O=C(Nc1cccc(C(F)(F)F)c1)c1ccccc1NCc1ccncc1    6.42
O=C(Nc1cccc(-c2cncc3ccccc23)c1)c1ccccc1NCc1ccncc1    7.00

---

# collection of IC50 values tested on Hepatocyte growth factor receptor (Homo sapiens)
Measurement kind: IC50

O=C(Nc1cccc(-c2cncc3ccccc23)c1)c1ccccc1NCc1ccncc1    > 10 µM
O=C(Nc1cccc(C(F)(F)F)c1)c1ccccc1NCc1ccncc1    > 10 µM
